# assay_notes: Pharmacokinetic studies of certain compounds in female Balb/c mice (Example 5)
# Type: in vivo
# test_settings: mouse, plasma, I-27 IV 1 mg/kg
experimental_endpoint: MRT inf (h)
Respond with the bare value in h.

Q. Complete the entry with MRT inf for CC(C)Cc1sc(Nc2ncc(-c3cccs3)cc2C(=O)O)nc1C1(C)CCCCC1 [Compound I-27]
A. 1.13

* * *

# assay_notes: Pharmacokinetic studies of certain compounds in female Balb/c mice (Example 5)
# Type: in vivo
# test_settings: female, Balb/c, mouse, plasma, iv, 1 mg/kg, I-3 IV 1 mg/kg, 0.5 hr, read-out: Plasma concentration Individual
experimental_endpoint: concentration at 0.5 h (ng/mL)
Respond with the bare value in ng/mL.

Q. Complete the entry with concentration at 0.5 h for CC(C)Cc1sc(Nc2ncc(-c3cccs3)cc2C(=O)O)nc1C1CCCCC1
A. 246

* * *

# assay_notes: Pharmacokinetic studies of certain compounds in female Balb/c mice (Example 5)
# Type: in vivo
# test_settings: mouse, plasma, I-1 PO 30 mg/kg
experimental_endpoint: MRT inf
The answer consists of two parts: a number and, after it, its unit.

Q. Complete the entry with MRT inf for CC(C)Cc1sc(Nc2ncc(-c3cccs3)cc2C(=O)O)nc1C1=CCOCC1
A. 2.76 h

* * *

# assay_notes: Pharmacokinetic studies of certain compounds in female Balb/c mice (Example 5)
# Format: in vivo
# test_settings: mouse, plasma, I-27 PO 30 mg/kg
# Experimental: Pharmacokinetic studies were performed using Balb/c mice, 15-20 g, 6-9 weeks, female, N=9, purchased from Jihui Laboratory Animal Co. LTD. For compound I-29, Balb/c mice, 19-21 g, 9-11 weeks, female, N=9, were used. […] Plasma samples were analyzed using LC-MS using a calibration curve of known concentrations. The results of these studies are summarized in Tables 11-21 below and in FIGS. 2-8. […] BQL=below quantifiable limit for compound in female Balb/c mouse plasma samples. […]
experimental_endpoint: Cmax (ng/mL)
Respond with the bare value in ng/mL.

Q. Complete the entry with Cmax for CC(C)Cc1sc(Nc2ncc(-c3cccs3)cc2C(=O)O)nc1C1(C)CCCCC1
A. 2280

* * *

# assay_notes: Pharmacokinetic studies of certain compounds in female Balb/c mice (Example 5)
# Format: in vivo
# test_settings: mouse, plasma, I-8 IV 1 mg/kg
experimental_endpoint: MRT inf
The answer consists of two parts: a number and, after it, its unit.

Q. Complete the entry with MRT inf for CC(C)Cc1sc(Nc2ncc(-c3cccs3)cc2C(=O)O)nc1C1=CCCC1 [Compound I-8]
A. 28.3 min

* * *

# assay_notes: Pharmacokinetic studies of certain compounds in female Balb/c mice (Example 5)
# Assay type: in vivo
# test_settings: female, Balb/c, mouse, plasma, iv, 1 mg/kg, I-27 IV 1 mg/kg, 0.5 hr, read-out: Plasma concentration Individual
experimental_endpoint: concentration at 0.5 hr (ng/mL)
Respond with the bare value in ng/mL.

Q. Complete the entry with concentration at 0.5 hr for CC(C)Cc1sc(Nc2ncc(-c3cccs3)cc2C(=O)O)nc1C1(C)CCCCC1
A. 638

* * *

# assay_notes: Pharmacokinetic studies of certain compounds in female Balb/c mice (Example 5)
# Format: in vivo
# test_settings: female, Balb/c, mouse, plasma, po, 100 mg/kg, I-2 PO 100 mg/kg, 2 hr, read-out: Plasma concentration Mean
experimental_endpoint: concentration at 2 h (ng/mL)
Respond with the bare value in ng/mL.

Q. Complete the entry with concentration at 2 h for CC(C)Cc1sc(Nc2ncc(-c3cccs3)cc2C(=O)O)nc1C1=CCCCC1 [Compound I-2]
A. 3920

These entries and their values trace back to patent US20240208961A1.
